System: HL60 cells
Test: AsedaSciences SYSTEMETRIC Cell Health Screen (flow cytometry toxicity profiling)
Settings: SYSTEMETRIC Cell Health Screen; assay n=2
Procedure: To prioritize further optimization, in addition to cellular potency, we utilized the AsedaSciences® […]® Cell Health Screen. […] In a 384-well platform, HL60 cells were exposed to a 10-step, 3 × dilution series of each test compound (5 nM–100 µM) for 4 h at 37 °C with 5% CO2. […] Fluorescence and forward/side-scatter data were collected using automated FC with no gating. […]
Below, each of the compounds is paired with its reported Cell Health Toxcity Profile GSH (Glutathione) value.
Lab note: record the figure alone, no unit after it.

>  <compound>
C#Cc1cccc(Nc2c(C#N)cnc3ccc(F)cc23)c1 [Compound 25]

>  <val>
0.97

$$$$
>  <compound>
C#Cc1cccc(Nc2c(C#N)cnc3cc(OC)ccc23)c1 [Compound 33]

>  <val>
0.78

$$$$
>  <compound>
C#Cc1cccc(Nc2c(C#N)cnc3ccc(Br)cc23)c1 [Compound 27]

>  <val>
0.98

$$$$
>  <compound>
C#Cc1cccc(Nc2c(C#N)cnc3cc(Br)ccc23)c1 [Compound 31]

>  <val>
0.92

$$$$

Memo: C#Cc1cccc(Nc2c(C#N)cnc3cc(Cl)ccc23)c1 [Compound 30] , reported Cell Health Toxcity Profile GSH (Glutathione): 0.065

Memo: C#Cc1cccc(Nc2c(C#N)cnc3ccc(OC)cc23)c1 [Compound 23] , reported Cell Health Toxcity Profile GSH (Glutathione): 0.0085

Memo: C#Cc1cccc(Nc2c(C#N)cnc3ccc(Cl)cc23)c1 [Compound 26] , reported Cell Health Toxcity Profile GSH (Glutathione): 0.99

* * *

tested on: HL60 cells; assay: AsedaSciences SYSTEMETRIC Cell Health Screen (flow cytometry toxicity profiling); conditions: HL60, 4 h, 5 nM–100 µM, probability 0–1, n = 2
recorded.endpoint: ROS: Reactive superoxide species score
Lab note: record the figure alone, no unit after it.

Here's what some known entries look like.
>  <compound>
C#Cc1cc(Nc2ncnc3cc(I)ccc23)ccc1F

>  <assayed.system>
HL60 cells

>  <val>
0.34

$$$$
>  <compound>
C#Cc1cccc(Nc2ccnc3cc(I)ccc23)c1F

>  <assayed.system>
HL60 cells

>  <val>
0.99

$$$$
>  <compound>
C#Cc1cccc(Nc2ncnc3ccccc23)c1

>  <assayed.system>
HL60 cells

>  <val>
0.98

$$$$
>  <compound>
CSc1ccc2c(c1)N(CCC1CCCCN1C)c1ccccc1S2 (centres unmarked) [Thioridazine, reference compound]

>  <assayed.system>
HL60 cells

>  <val>
1.00

$$$$
>  <compound>
CC(C(=O)O)c1cccc(C(=O)c2ccccc2)c1 (centres unmarked) [Ketoprofen, reference compound]

>  <assayed.system>
HL60 cells

>  <val>
0.18

$$$$
>  <compound>
CS(=O)(=O)CCNCc1ccc(-c2ccc3ncnc(Nc4ccc(OCc5cccc(F)c5)c(Cl)c4)c3c2)o1 [Lapatinib, reference compound]

>  <assayed.system>
HL60 cells

>  <val>
0.90

$$$$
>  <compound>
C#Cc1cccc(Nc2ncnc3cc(I)ccc23)c1

>  <assayed.system>
HL60 cells

>  <val>
1.00

$$$$
>  <compound>
C#Cc1cccc(Nc2ncnc3cc(OC)c(OC)cc23)c1

>  <assayed.system>
HL60 cells

>  <val>
0.32

$$$$

Memo: C#Cc1cccc(Nc2ncnc3cc(F)ccc23)c1 , reported ROS: Reactive superoxide species score: 0.77

Memo: CN(C)C/C=C/C(=O)Nc1cc2c(Nc3ccc(F)c(Cl)c3)ncnc2cc1O[C@H]1CCOC1 [Afatinib, reference compound] , reported ROS: Reactive superoxide species score: 1.00

Memo: C#Cc1cccc(Nc2ncnc3ccc(C#N)cc23)c1 , reported ROS: Reactive superoxide species score: 0.042

Memo: C#Cc1cccc(Nc2ncnc3cc(C#N)ccc23)c1 , reported ROS: Reactive superoxide species score: 0.41

Memo: COc1ccc2cc3[n+](cc2c1OC)CCc1cc2c(cc1-3)OCO2 [Berberine, reference compound] , reported ROS: Reactive superoxide species score: 1.00

Memo: CC/C(=C(\c1ccccc1)c1ccc(OCCN(C)C)cc1)c1ccccc1 [Tamoxifen, reference compound] , reported ROS: Reactive superoxide species score: 1.00

Memo: CN(CCOc1ccc(CC2SC(=O)NC2=O)cc1)c1ccccn1 (centres unmarked) [Rosiglitazone, reference compound] , reported ROS: Reactive superoxide species score: 0.070

Memo: CC(CN1c2ccccc2Sc2ccccc21)N(C)C (centres unmarked) [Promethazine, reference compound] , reported ROS: Reactive superoxide species score: 0.98

Memo: Cc1ccc(-c2cc(C(F)(F)F)nn2-c2ccc(S(N)(=O)=O)cc2)cc1 [Celecoxib, reference compound] , reported ROS: Reactive superoxide species score: 0.96

Memo: C#Cc1cc(Nc2ncnc3ccc(I)cc23)ccc1Cl , reported ROS: Reactive superoxide species score: 0.91

Memo: Cc1ccc(=O)n(-c2ccccc2)c1 [Pirfenidone, reference compound] , reported ROS: Reactive superoxide species score: 0.020

Memo: C#Cc1cccc(Nc2ncnc3ccc(C(F)(F)F)cc23)c1 , reported ROS: Reactive superoxide species score: 0.77

Memo: O=C1CC2(CCCC2)CC(=O)N1CCCCN1CCN(c2ncccn2)CC1 [Buspirone, reference compound] , reported ROS: Reactive superoxide species score: 0.05

Memo: CC(C)(C)c1ccc(C(O)CCCN2CCC(C(O)(c3ccccc3)c3ccccc3)CC2)cc1 (centres unmarked) [Terfenadine, reference compound] , reported ROS: Reactive superoxide species score: 1.00

Memo: CCC(C)(C)C(=O)O[C@H]1C[C@@H](C)C=C2C=C[C@H](C)[C@H](CC[C@@H]3C[C@@H](O)CC(=O)O3)[C@H]21 [Simvastatin, reference compound] , reported ROS: Reactive superoxide species score: 0.11

Memo: C#Cc1cccc(Nc2ncnc3ccc(S(C)(=O)=O)cc23)c1 , reported ROS: Reactive superoxide species score: 0.055

Memo: C#Cc1ccc(F)c(Nc2ncnc3cc(I)ccc23)c1 , reported ROS: Reactive superoxide species score: 1.00

Memo: C#Cc1cccc(Nc2c(C#N)cnc3ccc(I)cc23)c1 , reported ROS: Reactive superoxide species score: 0.89

Memo: C#Cc1cccc(Nc2ncnc3ccc(C)cc23)c1 , reported ROS: Reactive superoxide species score: 0.20

Memo: CN1CCN(CCCN2c3ccccc3Sc3ccc(Cl)cc32)CC1 [Prochlorperazine, reference compound] , reported ROS: Reactive superoxide species score: 1.00

Memo: CN(C)CCOC(c1ccccc1)c1ccccc1 [Diphenhydramine, reference compound] , reported ROS: Reactive superoxide species score: 0.040

* * *

Tested on: HL60 cells
Assay: AsedaSciences SYSTEMETRIC Cell Health Screen (flow cytometry toxicity profiling)
Conditions: SYSTEMETRIC Cell Health Screen; assay n=2
Procedure: To prioritize further optimization, in addition to cellular potency, we utilized the AsedaSciences® […]® Cell Health Screen. […] In a 384-well platform, HL60 cells were exposed to a 10-step, 3 × dilution series of each test compound (5 nM–100 µM) for 4 h at 37 °C with 5% CO2. […] Fluorescence and forward/side-scatter data were collected using automated FC with no gating. […]
Please respond with true (1) when measured Cell Health Toxcity Profile ROS (Reactive superoxide species) is strictly beneath 0.9, and with false (0) in all other cases.

See these solved cases before continuing.
>  <substance.smiles>
C#Cc1cccc(Nc2c(C#N)cnc3ccccc23)c1

>  <answer.label>
false (0)

$$$$
>  <substance.smiles>
C#Cc1cccc(Nc2c(C#N)cnc3ccc(S(C)(=O)=O)cc23)c1

>  <answer.label>
true (1)

$$$$
>  <substance.smiles>
C#Cc1cccc(Nc2c(C#N)cnc3ccc(OC)cc23)c1

>  <answer.label>
true (1)

$$$$
>  <substance.smiles>
C#Cc1cccc(Nc2c(C#N)cnc3cc(Cl)ccc23)c1

>  <answer.label>
true (1)

$$$$

Could you now look at the following compound, please?
Lookup: In plain terms, does C#Cc1cccc(Nc2c(C#N)cnc3cc(OC)ccc23)c1 come in under 0.9 for Cell Health Toxcity Profile ROS (Reactive superoxide species)?
Found: true (1)

* * *

system: HL60 cells; assay: AsedaSciences SYSTEMETRIC Cell Health Screen (flow cytometry toxicity profiling); settings: HL60, 4 h, 5 nM–100 µM, probability 0–1, n = 2
Below, each of the compounds is paired with its reported MMP: Mitochondrial membrane depolarization score value.

Here's what some known entries look like.
>  <compound>
CN(C)C/C=C/C(=O)Nc1cc2c(Nc3ccc(F)c(Cl)c3)ncnc2cc1O[C@H]1CCOC1 [Afatinib, reference compound]

>  <val>
1.00

$$$$
>  <compound>
C#Cc1cccc(Nc2ncnc3cc(C(F)(F)F)ccc23)c1

>  <val>
1.00

$$$$
>  <compound>
C#Cc1cccc(Nc2ncnc3cc4c(cc23)OCCO4)c1

>  <val>
0.91

$$$$
>  <compound>
C#Cc1cccc(Nc2ncnc3cc(I)ccc23)c1

>  <val>
0.99

$$$$

Memo: CC(CN1c2ccccc2Sc2ccccc21)N(C)C (stereo not drawn) [Promethazine, reference compound] , reported MMP: Mitochondrial membrane depolarization score: 0.97

Memo: C#Cc1cccc(Nc2ncnc3ccc(C)cc23)c1 , reported MMP: Mitochondrial membrane depolarization score: 0.49

Memo: C#Cc1cccc(Nc2ncnc3ccc(F)cc23)c1 , reported MMP: Mitochondrial membrane depolarization score: 0.26

Memo: O=C(O)CCc1nc(-c2ccccc2)c(-c2ccccc2)o1 [Oxaprozin, reference compound] , reported MMP: Mitochondrial membrane depolarization score: 0.000

Memo: COc1ccc2cc3[n+](cc2c1OC)CCc1cc2c(cc1-3)OCO2 [Berberine, reference compound] , reported MMP: Mitochondrial membrane depolarization score: 1.00

src = paper PMC9329436
